Tested on: SNB-19
Protocol Details: NCI tumour cell line growth inhibition, 48 h
Activity calls are given as the source filed them. No stated cut-off is given here; in the data, active = GI50 up to about 1.1 µM and inactive = higher.
Please answer using one outcome listed in 1 (yes) = active, 0 (no) = inactive

A selection of reference data follows.
* Cc1cc2c(c(/C=N/Cc3ccccc3)c1)OC1(C=C2)Oc2ccccc2C(=O)N1C (stereo not drawn) | 0 (no)
* CC(C)(C)OC(=O)C1C(=O)NC(=O)CC1C(OCc1ccccc1)C(OCc1ccccc1)C(COCc1ccccc1)OCc1ccccc1 (stereo not drawn) | 0 (no)
* S=c1nc(Nc2ccc(Cl)cc2)c2c3c(sc2[nH]1)CCCC3 | 0 (no)
* COC(=O)[C@H](C)[C@@H]1CC[C@](C)(CCC2=C(C)CCCC2(C)C)OO1 | 0 (no)
* CCCC[C@H]1C(=O)O[C@H](C)[C@H](NC(=O)c2cccc(NC=O)c2OC)C(=O)O[C@@H](C)[C@@H]1OC(=O)C(C)CC.CCCC[C@H]1C(=O)O[C@H](C)[C@H](NC(=O)c2cccc(NC=O)c2OC)C(=O)O[C@@H](C)[C@@H]1OC(=O)CC(C)C (stereo partly drawn) | 0 (no)
* COC(=O)/C=C(/C(=O)OC)C1(C)c2cc(C(=O)OC)c(C(=O)OC)c(N)c2C(=N)N1c1ccccc1 (stereo not drawn) | 0 (no)
* COc1c(/C=C/C(C)(C)O)cc(C2CC(=O)c3c(O)cc(O)cc3O2)cc1CC=C(C)C (stereo not drawn) | 0 (no)
* CC(C)CCc1n[nH]c(=O)n1/N=C\c1ccccc1 | 0 (no)
* C=C[C@H]1CC[C@H]2[C@@H]3CC=C4C[C@@H](OC5OCC(O)C(O)C5O)CC[C@]4(C)[C@H]3CC[C@]12C (stereo partly drawn) | 0 (no)
* NC1=NC(NCC2(CO)CCC2)=CC(OCC2(CO)CCC2)N1 (stereo not drawn) | 0 (no)

Now examine the next entry.
Query block: Recorded test call requested for CC[C@@]1(O)C(=O)OCc2c1cc1n(c2=O)Cc2c-1nc1ccccc1c2/C=N/NC(=O)c1ccc(N)cc1
Result block: 1 (yes)

###

Tested on: SF-539
Protocol Details: NCI tumour cell line growth inhibition, 48 h
The source made the active and inactive calls. Cut-off read from the data, not from the text of the source: active = GI50 up to about 1.1 µM and inactive = higher.
Measurement Name: GI50

Examples with answers:
* O=c1c2ccccc2n2cnc3ccc(NCCNCCO)c1c32 | 3.24 µM (inactive)
* O=C1OC(c2ccccc2)(c2ccccc2)CC1CN1CCOCC1 (stereo not drawn) | 17.5 µM (inactive)

Query block: I am curious: what GI50 value has been reported for O=C(CC/C(CC(=O)c1ccc(Cl)cc1)=N/O)Nc1ccc(Cl)c(Cl)c1 ?
Result block: > 100 µM (inactive)

Query block: Quick one: O=S1(=O)c2cnccc2N=C(NCc2cccc3ccccc23)N1c1ccccc1
Result block: > 100 µM (inactive)

Query block: Quick one: COc1cc(C2SC(=N)Nc3c2c(C)nn3C(=O)Cc2ccccc2)ccc1O (stereo not drawn)
Result block: > 100 µM (inactive)

###

System: UO-31
Protocol Details: NCI tumour cell line growth inhibition, 48 h
Activity calls are given as the source filed them. Rule as the data show it: active = GI50 up to about 1.1 µM and inactive = higher.
# GI50 per entry

Examples with answers:
* CC/C=C1\N=C(c2ccc(Cl)cc2)OC1=O | > 100 µM (inactive)
* N=C(N)N/N=C/c1oc(-c2ccc(S(=O)(=O)O)o2)c(-c2ccc(S(=O)(=O)O)o2)c1[N+](=O)[O-] | > 100 µM (inactive)

Query block: I am curious: what GI50 value has been reported for Cc1ccc(C2=Nn3c(nc4sc5c(c4c3=O)CCCC5)SC2)cc1 ?
Result block: > 100 µM (inactive)

###

System: HOP-92
Protocol Details: NCI tumour cell line growth inhibition, 48 h
Active and inactive are the calls of the source. Rule as the data show it: active = GI50 up to about 1.1 µM and inactive = higher.
Please answer using one outcome listed in YES = active, NO = inactive

A selection of reference data follows.
* CCOC(=O)CCC(NC(=O)c1ccc(Oc2nc3ccccc3nc2-c2ccccc2)cc1)C(=O)OCC (stereo not drawn) | NO
* Cc1cccc(Cl)c1NC(=O)/C=C/c1ccccc1 | NO
* COc1ccc(CC(=O)NCCc2ccc(OC)c(OC)c2)cc1Br | NO

Query block: Recorded test call requested for Cc1c2n(c3ccccc13)S(=O)(=O)c1ccccc1-2
Result block: NO

Query block: Quick one: COC(=O)[C@H](C)[C@@H]1CC[C@](C)(CCC2=C(C)CCCC2(C)C)OO1
Result block: NO

Query block: Quick one: C(=N\c1ccc(-c2nc3ccccc3s2)cc1)/c1ccc[nH]1
Result block: NO

Query block: Quick one: CC(=O)n1ccc2c(Cl)ncnc21
Result block: NO

Query block: Quick one: N#CCc1ccccc1/C(C#N)=C1/OC(=N)C(c2ccccc2CC#N)C1=O (stereo not drawn)
Result block: NO

###

Test system: UO-31
Protocol Details: NCI tumour cell line growth inhibition, 48 h
Activity calls are given as the source filed them. No stated cut-off is given here; in the data, active = GI50 up to about 1.1 µM and inactive = higher.
Please answer using one outcome listed in T = active, F = inactive

A selection of reference data follows.
- CCN(CC)CCCn1c(=O)c2cccnc2n2c3c(=O)n(C)c(=O)n(C)c3nc12: F
- C=C1C(=O)OC2/C=C(CO)/C=C\C3OC3(C)CC(OC(=O)/C(C)=C/COC(C)=O)C12 (centres undefined): F

Query block: Recorded test call requested for CCCCCc1c(Cl)nc(Cl)nc1Cl
Result block: F

Query block: Quick one: CC(=O)Oc1cc2oc(=O)cc(C)c2cc1OC(C)=O
Result block: F

Query block: Quick one: NC(=O)C12CC3CC(CC(F)(C3)C1)C2
Result block: F

Query block: Quick one: COc1c(C)cc2c(c1O)C1NC(C2)[C@H](O)N2C3COC(=O)[C@@]4(CS[C@@H](c5c(OC(C)=O)c(C)c6c(c53)OCO6)C12)NCCC1=C4NC2C=CC=CC12 (some centres undefined)
Result block: T

Query block: Quick one: Cc1nc(NC(C)(CO)CO)nc(N/N=C/c2ccc(Cl)cc2)c1C(=O)Nc1ccc(Cl)cc1
Result block: F

Query block: Quick one: COc1cc2nc(-c3ccccc3)cc(O)c2cc1OC
Result block: F

Query block: Quick one: C=C[C@H]1CC[C@H]2[C@@H]3CC=C4C[C@@H](OC5OCC(O)C(O)C5O)CC[C@]4(C)[C@H]3CC[C@]12C (some centres undefined)
Result block: F

###

Test system: U-251
Protocol Details: NCI tumour cell line growth inhibition, 48 h
The source made the active and inactive calls. No stated cut-off is given here; in the data, active = GI50 up to about 1.1 µM and inactive = higher. Peptide text beside a SMILES is read from it.
Measurement Name: GI50

Examples with answers:
* c1ccc(C2SCc3nc4ccccc4n32)cc1 (centres undefined) | 58.7 µM (inactive)
* COc1cc2nc(-c3ccccc3)cc(O)c2cc1OC | 6.95 µM (inactive)
* Cc1ccccc1C(=O)Oc1ccc(OCc2ccccc2)cc1 | > 100 µM (inactive)
* Cc1nc2sc3ccccc3n2c(=O)c1/N=N/c1ccc(Br)cc1 | > 100 µM (inactive)
* CC(=O)O[C@@H]1C[C@]2(C(=O)c3ccccc3)C(=O)C(=O)S[C@]12c1ccccc1 | 31.3 µM (inactive)

Query block: I am curious: what GI50 value has been reported for CC(C)CCc1n[nH]c(=O)n1/N=C\c1ccccc1 ?
Result block: > 100 µM (inactive)

Query block: Quick one: Cn1c2ccccc2n2c3nc4ccccc4nc3c(C#N)c12
Result block: 74 µM (inactive)

Query block: Quick one: CC(C)CC(NC(=O)C(CC(C)C)NC(=O)C(Cc1c[nH]cn1)NC(=O)C(C)NC(=O)C(NC(=O)C(C)NC(=O)C(Cc1c[nH]c2ccccc12)NC(=O)C(CCC(=O)O)NC(=O)C(N)Cc1ccccc1)C(C)C)C(N)=O (centres undefined) (H-FEWAVAHLL-NH2; configuration not given here)
Result block: > 12.5 µM (inactive)

Query block: Quick one: CC(=O)n1[nH]c(=O)n(-c2ccc(Cl)cc2)c1=O
Result block: > 100 µM (inactive)

###

System: SF-268
Protocol Details: NCI tumour cell line growth inhibition, 48 h
Calls of active or inactive are those of the source. No stated cut-off is given here; in the data, active = GI50 up to about 1.1 µM and inactive = higher.
Please answer using one outcome listed in active, inactive

A selection of reference data follows.
• C=CCC1(CN(C)C)CC/C(=C\c2ccc(OC)cc2)C1=O (stereo unspecified) = inactive
• CNC(=O)N(C)COC = inactive
• Cc1cccc(Cl)c1NC(=O)/C=C/c1ccccc1 = inactive
• CO/N=C(\C)c1ccc(Nc2c3ccccc3nc3occc23)cc1 = active
• CC1CC2CC(=O)CC3(C1)C2CCCN3CCCO (stereo unspecified) = inactive
• O=C(Nc1ccccc1)c1cc2ccccc2c(/N=N/c2ccc([N+](=O)[O-])cc2)c1O = inactive

Query block: Recorded test call requested for CCOC(=O)CCC(NC(=O)c1ccc(Oc2nc3ccccc3nc2-c2ccccc2)cc1)C(=O)OCC (stereo unspecified)
Result block: inactive

Query block: Quick one: Nc1ccc(S(=O)(=O)Nc2ccc(Nc3c4ccccc4nc4ccccc34)cc2)cc1
Result block: active

Query block: Quick one: Cc1cccc(C)c1NC(=O)/C=C/c1ccccc1
Result block: inactive

Query block: Quick one: Cc1nc2c(sc(=S)n2-c2ccccc2)c2nc3ccccc3n12
Result block: inactive

Query block: Quick one: CC(=O)C(=[N+]=[N-])C(=O)OC(C)(C)C#N
Result block: inactive
